assay: in vivo; conditions: male, Wistar, rat, 1 mg/kg
Counter-ions that a name gives are not always drawn.
Measure Name: AUC
Could you write the number and then its unit?

Task: Reported AUC for COc1cccc2c1C(=O)c1c(O)c3c(c(O)c1C2=O)C[C@@](O)(C(=O)CO)C[C@@H]3O[C@H]1C[C@H](N)[C@@H](O)[C@H](C)O1 [epirubicin hydrochloride] : what is it?
Output: 40 ng·h/mL

* * *

assay: MTD previously determined using normal healthy mice; format: in vivo; conditions: mouse, in vivo, read-out: MTD
Counter-ions that a name gives are not always drawn.
Measure Name: MTD (mg/kg)
Supply the numeric figure in mg/kg, leaving out any unit text.

Task: Which MTD is reported for this compound? COc1cccc2c1C(=O)c1c(O)c3c(c(O)c1C2=O)C[C@@](O)(C(=O)CO)C[C@@H]3O[C@H]1C[C@H](N)[C@H](O)[C@H](C)O1 [DOX solution (Comp. Ex. 12), doxorubicin hydrochloride]
Output: 5

Source: patent US8519051B2
